System: RXRa homodimer (NR concentration 180 nM)
experiment: PBM binding z-score (relative to random genomic background probes); higher = stronger binding; sequences stand for … in GC…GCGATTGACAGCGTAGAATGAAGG
Label FALSE if PBM binding z-score falls below 4; label TRUE in every other case.

- item sequence: "CTCGAAAGCTCGTGCTCAGGTGAGTATACCAAAC"
  category: "FALSE"
- item sequence: "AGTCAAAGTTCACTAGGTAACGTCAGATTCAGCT"
  category: "TRUE"
- item sequence: "AATACAGGGTCACTAGACCAGAGTAGGTACGAAT"
  category: "TRUE"
- item sequence: "CCAGACTGGTGAAAGGTAACTCAGTCTGGTACGC"
  category: "FALSE"
- item sequence: "CCTGCTAGGTCATGGTCGGCTAATCTACAGTATG"
  category: "FALSE"
- item sequence: "CGTCCAAGGTCAGCAGGTCATTGAAAGCGACGTG"
  category: "TRUE"
- item sequence: "CGTCCAGGGTCAATGCTAGGTCAGTGAAAGCATT"
  category: "TRUE"
- item sequence: "TGAATGAGGTTAAAGATCATGGAACGTGGCGTCG"
  category: "TRUE"
- item sequence: "AATACAGGGTCACTAGCCCAGAGTAGGTACGAAT"
  category: "TRUE"
- item sequence: "CATACAGGGTCAGCTAAGCCAGAGTAGGGACGGC"
  category: "TRUE"
- item sequence: "TCGAGTAGGTTAGGGGCATCCAGAATGGCGTCGA"
  category: "FALSE"
- item sequence: "AGAATGAGGATACCAAAGATCAGGGAAACGCTTG"
  category: "FALSE"

* * *

Documented PBM binding z-score across a set of sequences
Tested on: RXRa DBDmut IVT, anti-RXR (DBD mutation: RXRa K156A/R161A, NR concentration 90 nM)
experiment: PBM binding z-score (relative to random genomic background probes); higher = stronger binding; sequences stand for … in GC…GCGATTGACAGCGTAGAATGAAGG
measured parameter: PBM binding z-score

- item sequence: "TCGAATAGGTTAGGGGCATTCAGAATGGCGTCGA"
  system tested: "RXRa DBDmut IVT, anti-RXR (DBD mutation: RXRa K156A/R161A, NR concentration 90 nM)"
  test value: 1.19
- item sequence: "GGAACGAGGGCGAAGTTGATAGCATCTGTCGACG"
  system tested: "RXRa DBDmut IVT, anti-RXR (DBD mutation: RXRa K156A/R161A, NR concentration 90 nM)"
  test value: 1.17
- item sequence: "TCTTGGAGATCAATAGAGGTTAAGAAAGTGCGCT"
  system tested: "RXRa DBDmut IVT, anti-RXR (DBD mutation: RXRa K156A/R161A, NR concentration 90 nM)"
  test value: 0.544
- item sequence: "TTACCAAGGTGAGCTGAGGTCGTTCATCCAACTC"
  system tested: "RXRa DBDmut IVT, anti-RXR (DBD mutation: RXRa K156A/R161A, NR concentration 90 nM)"
  test value: 0.409
- item sequence: "TCATATAGGAAAAAGGTGAAAGTCGGTGTGGTAA"
  system tested: "RXRa DBDmut IVT, anti-RXR (DBD mutation: RXRa K156A/R161A, NR concentration 90 nM)"
  test value: 1.88
- item sequence: "CCGAGTAGGTTAAGGGGCATTCAGGCAACGGTGA"
  system tested: "RXRa DBDmut IVT, anti-RXR (DBD mutation: RXRa K156A/R161A, NR concentration 90 nM)"
  test value: 0.277
- item sequence: "GCTCGGAGGACAAGGTCAGCGCTTTGTCCGTAGA"
  system tested: "RXRa DBDmut IVT, anti-RXR (DBD mutation: RXRa K156A/R161A, NR concentration 90 nM)"
  test value: 0.531
- item sequence: "AGCTCTAGGTAAAGTTCAGTGAAAGATCGATAGA"
  system tested: "RXRa DBDmut IVT, anti-RXR (DBD mutation: RXRa K156A/R161A, NR concentration 90 nM)"
  test value: 1.43
- item sequence: "GCTGCTAGGTCAACTGATGGGCAGCTAAAGCTCG"
  system tested: "RXRa DBDmut IVT, anti-RXR (DBD mutation: RXRa K156A/R161A, NR concentration 90 nM)"
  test value: 1.45
- item sequence: "CCTAGTTGGTCAAGGTGACACACGCTATAGGTAC"
  system tested: "RXRa DBDmut IVT, anti-RXR (DBD mutation: RXRa K156A/R161A, NR concentration 90 nM)"
  test value: 0.165
- item sequence: "CCTGCTCGGTCATGGTCAGCTAATCTACAGTATG"
  system tested: "RXRa DBDmut IVT, anti-RXR (DBD mutation: RXRa K156A/R161A, NR concentration 90 nM)"
  test value: 0.361
- item sequence: "ACTTACGGGTCAGCGAGGTTATAGCACGCGTATA"
  system tested: "RXRa DBDmut IVT, anti-RXR (DBD mutation: RXRa K156A/R161A, NR concentration 90 nM)"
  test value: 1.45
- item sequence: "CCTACTGGGCCAAATAGGTCATTGATGCCGATAA"
  system tested: "RXRa DBDmut IVT, anti-RXR (DBD mutation: RXRa K156A/R161A, NR concentration 90 nM)"
  test value: -0.057
- item sequence: "ATATGTAGGTTAAGAGTCATTCAGGTTGGTTCGC"
  system tested: "RXRa DBDmut IVT, anti-RXR (DBD mutation: RXRa K156A/R161A, NR concentration 90 nM)"
  test value: 0.882
- item sequence: "TGTCAAAGTTCCAAGGTAACGTAAGTATCCACAC"
  system tested: "RXRa DBDmut IVT, anti-RXR (DBD mutation: RXRa K156A/R161A, NR concentration 90 nM)"
  test value: -0.251
- item sequence: "CGTCAAAATTCAAGGTAACGTAACAGAAAGCAGC"
  system tested: "RXRa DBDmut IVT, anti-RXR (DBD mutation: RXRa K156A/R161A, NR concentration 90 nM)"
  test value: -0.0025
- item sequence: "TCATCTAGGTAATACAGGTGAAAGTCGGCATCTA"
  system tested: "RXRa DBDmut IVT, anti-RXR (DBD mutation: RXRa K156A/R161A, NR concentration 90 nM)"
  test value: 1.24
- item sequence: "TCTTATAGGTAATACAGGTGAAAGTCGGCATCTA"
  system tested: "RXRa DBDmut IVT, anti-RXR (DBD mutation: RXRa K156A/R161A, NR concentration 90 nM)"
  test value: 1.75
- item sequence: "CCTCGGAGGACAGAAGGTCAGTGCTGTCCGCTTT"
  system tested: "RXRa DBDmut IVT, anti-RXR (DBD mutation: RXRa K156A/R161A, NR concentration 90 nM)"
  test value: 0.236
- item sequence: "GCTGCTAGGGCAACTGATGGTCAGCTAAAGCTCG"
  system tested: "RXRa DBDmut IVT, anti-RXR (DBD mutation: RXRa K156A/R161A, NR concentration 90 nM)"
  test value: -0.0325
- item sequence: "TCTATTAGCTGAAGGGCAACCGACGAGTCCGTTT"
  system tested: "RXRa DBDmut IVT, anti-RXR (DBD mutation: RXRa K156A/R161A, NR concentration 90 nM)"
  test value: 0.755
- item sequence: "ACTATTAGTTGAATTAGGGCAACCGATACGACGC"
  system tested: "RXRa DBDmut IVT, anti-RXR (DBD mutation: RXRa K156A/R161A, NR concentration 90 nM)"
  test value: 0.675
- item sequence: "ACTATTAGTTGCGACGAGGGCAACCGATAGGTTG"
  system tested: "RXRa DBDmut IVT, anti-RXR (DBD mutation: RXRa K156A/R161A, NR concentration 90 nM)"
  test value: 0.4
- item sequence: "GCTATTAGTTGAAAGCGCAACCGAATGATTCTCG"
  system tested: "RXRa DBDmut IVT, anti-RXR (DBD mutation: RXRa K156A/R161A, NR concentration 90 nM)"
  test value: 0.445
- item sequence: "CGTCAACGTTCAAGGTAACGTAACAGAAAGCAGC"
  system tested: "RXRa DBDmut IVT, anti-RXR (DBD mutation: RXRa K156A/R161A, NR concentration 90 nM)"
  test value: 0.181
- item sequence: "AGAACGAGGGCAATGAGTTGGTAGCACGGGTGGC"
  system tested: "RXRa DBDmut IVT, anti-RXR (DBD mutation: RXRa K156A/R161A, NR concentration 90 nM)"
  test value: 1.47
- item sequence: "ATATGTAGGTTATATCCGGGTCATTCAGGCTATG"
  system tested: "RXRa DBDmut IVT, anti-RXR (DBD mutation: RXRa K156A/R161A, NR concentration 90 nM)"
  test value: 1.22
- item sequence: "CCTTACGCGTCACTCCAGGTTATAGCATCGGAGT"
  system tested: "RXRa DBDmut IVT, anti-RXR (DBD mutation: RXRa K156A/R161A, NR concentration 90 nM)"
  test value: 0.6
- item sequence: "CCTAGTTGGTCAGGAGGTCTCACACCGGATATGA"
  system tested: "RXRa DBDmut IVT, anti-RXR (DBD mutation: RXRa K156A/R161A, NR concentration 90 nM)"
  test value: -0.451
- item sequence: "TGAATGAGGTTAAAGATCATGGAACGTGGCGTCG"
  system tested: "RXRa DBDmut IVT, anti-RXR (DBD mutation: RXRa K156A/R161A, NR concentration 90 nM)"
  test value: 0.839
- item sequence: "TCTCGTTGGTCACGGAGGTCACACACGACGGGTA"
  system tested: "RXRa DBDmut IVT, anti-RXR (DBD mutation: RXRa K156A/R161A, NR concentration 90 nM)"
  test value: 0.929
- item sequence: "CGTAGCAGGCCAGGGTCACTCAAGCATTTCGCTT"
  system tested: "RXRa DBDmut IVT, anti-RXR (DBD mutation: RXRa K156A/R161A, NR concentration 90 nM)"
  test value: 0.749
- item sequence: "ATCTTTAGGTAACCAAGTTCAGTGAATGCCGAAC"
  system tested: "RXRa DBDmut IVT, anti-RXR (DBD mutation: RXRa K156A/R161A, NR concentration 90 nM)"
  test value: 1.36
- item sequence: "ATATGTAGGTTACATCCTGGTCATTCAGGCTATG"
  system tested: "RXRa DBDmut IVT, anti-RXR (DBD mutation: RXRa K156A/R161A, NR concentration 90 nM)"
  test value: 0.78
- item sequence: "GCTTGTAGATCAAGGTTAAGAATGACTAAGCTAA"
  system tested: "RXRa DBDmut IVT, anti-RXR (DBD mutation: RXRa K156A/R161A, NR concentration 90 nM)"
  test value: 0.0922
- item sequence: "CCTACTTGGCCAAAGGTCATTGATTCCAATGCTC"
  system tested: "RXRa DBDmut IVT, anti-RXR (DBD mutation: RXRa K156A/R161A, NR concentration 90 nM)"
  test value: 2.06
- item sequence: "TCATATAGGTACAAGGTGAAAGTCGGTGTGGTAA"
  system tested: "RXRa DBDmut IVT, anti-RXR (DBD mutation: RXRa K156A/R161A, NR concentration 90 nM)"
  test value: 2.04
- item sequence: "TTACCAAGGTAAGCTGAGGTCGTTGATCCAACTC"
  system tested: "RXRa DBDmut IVT, anti-RXR (DBD mutation: RXRa K156A/R161A, NR concentration 90 nM)"
  test value: 0.278
- item sequence: "ACTATTATTTGACTTAGGGCAACCGATACGACGC"
  system tested: "RXRa DBDmut IVT, anti-RXR (DBD mutation: RXRa K156A/R161A, NR concentration 90 nM)"
  test value: 1.24
- item sequence: "GCAGACAGGTGAAACGCAGGTATCTCAGGGTGGC"
  system tested: "RXRa DBDmut IVT, anti-RXR (DBD mutation: RXRa K156A/R161A, NR concentration 90 nM)"
  test value: -0.484
- item sequence: "TCTTGTAGATCAACAGGAGCTTAAGAAAGATCGA"
  system tested: "RXRa DBDmut IVT, anti-RXR (DBD mutation: RXRa K156A/R161A, NR concentration 90 nM)"
  test value: -0.0794
- item sequence: "ATCGAAAGATCGAAGGTGAGTATACCCACCCGAA"
  system tested: "RXRa DBDmut IVT, anti-RXR (DBD mutation: RXRa K156A/R161A, NR concentration 90 nM)"
  test value: -0.722
- item sequence: "ATCTCTCGGTAAAGATAGTTCAGTGAATGCAAAT"
  system tested: "RXRa DBDmut IVT, anti-RXR (DBD mutation: RXRa K156A/R161A, NR concentration 90 nM)"
  test value: -0.259
- item sequence: "CGAACTAGGTCATTGCCAGGACAGTGAATAGTAA"
  system tested: "RXRa DBDmut IVT, anti-RXR (DBD mutation: RXRa K156A/R161A, NR concentration 90 nM)"
  test value: 2.5
- item sequence: "ACTAGTTGGTCTGCTGAGGTCACACACAATTCGG"
  system tested: "RXRa DBDmut IVT, anti-RXR (DBD mutation: RXRa K156A/R161A, NR concentration 90 nM)"
  test value: 1.37
- item sequence: "ACTAGCGGGCCAAGTTTGGGTCACTCAAACAAAG"
  system tested: "RXRa DBDmut IVT, anti-RXR (DBD mutation: RXRa K156A/R161A, NR concentration 90 nM)"
  test value: -0.0414
- item sequence: "CCTACTGGGCCAAGGTCATTAATCAGTCAAAGCA"
  system tested: "RXRa DBDmut IVT, anti-RXR (DBD mutation: RXRa K156A/R161A, NR concentration 90 nM)"
  test value: 1.47
- item sequence: "ACTATTAGTTGGCTTAGGGCAACCGATACGACGC"
  system tested: "RXRa DBDmut IVT, anti-RXR (DBD mutation: RXRa K156A/R161A, NR concentration 90 nM)"
  test value: 0.512
- item sequence: "TCGAGTAGGTTACTCGGGGCATTCAGCCAACATA"
  system tested: "RXRa DBDmut IVT, anti-RXR (DBD mutation: RXRa K156A/R161A, NR concentration 90 nM)"
  test value: 0.42
- item sequence: "ACTAGTTGGTCAGCTGAGGTCACACGCAATTCGG"
  system tested: "RXRa DBDmut IVT, anti-RXR (DBD mutation: RXRa K156A/R161A, NR concentration 90 nM)"
  test value: 1.4
- item sequence: "CTCGAAAGGTAGTGCTCAGGTGAGTATACCAAAC"
  system tested: "RXRa DBDmut IVT, anti-RXR (DBD mutation: RXRa K156A/R161A, NR concentration 90 nM)"
  test value: -0.0232

The values you see were collected from the supplement of paper PMC6555819.
